assay: Hematology assays in cynomolgus monkeys (Example 46); type: in vivo; details: Day 17
Strand notation (5' to 3'): a small letter for the sugar, then the base; units joined by * are phosphorothioate-linked, units joined directly phosphodiester-linked; [ ] holds rarer units or linkages, { } end groups; capitals alone tell only the bases. e = 2'-O-(2-methoxyethyl) (MOE); [5mC] = 5-methylcytosine; d = 2'-deoxy (DNA)
quantity: hemoglobin content (g/dL)
One number for each entry, in g/dL.

Consider the worked cases shown below.
{"columns": ["substance", "quantity", "numeric_value"],
 "data": [
  ["ISIS 445522: 5-8-5 or 6-8-6 MOE microwalk gapmer (Table 44) (antisense eG*e[5mC]*eA*e[5mC]*eA*dG*dT*dT*dT*d[5mC]*dT*dG*dG*e[5mC]*eA*eG*eG*e[5mC])", "hemoglobin content", 12.7],
  ["ISIS 449709: 3-8-3, 4-8-4, 2-10-2, 3-10-3 or 4-10-4 MOE microwalk gapmer (Table 46) (antisense eG*e[5mC]*eA*e[5mC]*dA*dG*dT*dT*dT*d[5mC]*dT*dG*dG*d[5mC]*eA*eG*eG*e[5mC])", "hemoglobin content", 13.2],
  ["ISIS 445531: 5-8-5 or 6-8-6 MOE microwalk gapmer (Table 44) (antisense eG*eG*e[5mC]*eA*eT*dT*dG*dG*dT*dG*d[5mC]*dA*d[5mC]*eA*eG*eT*eT*eT)", "hemoglobin content", 12.7]
]}

Next, consider the following substance.
// hemoglobin content lookup, substance = ISIS 449710: 3-8-3, 4-8-4, 2-10-2, 3-10-3 or 4-10-4 MOE microwalk gapmer (Table 46) (antisense e[5mC]*eA*e[5mC]*dA*dG*dT*dT*dT*d[5mC]*dT*dG*dG*d[5mC]*eA*eG*eG) , result: 13.4

###

experiment: Hematology assays in cynomolgus monkeys (Example 45); assay type: in vivo; settings: day 85
Field: label. Allowed values: YES (neutrophils < 40%) or NO (neutrophils >= 40%).

{"columns": ["substance", "category"],
 "data": [
  ["ISIS 417002: MOE gapmer, nucleobases 1275 to 1318 of SEQ ID NO: 1 (Table 8) (antisense GGTGCACAGTTTCTGGCAGG; MOE gapmer, wing and gap sizes not given here)", "YES"],
  ["ISIS 416850: MOE gapmer, nucleobases 1275 to 1318 of SEQ ID NO: 1 (Table 8) (antisense TGCACAGTTTCTGGCAGGCC; MOE gapmer, wing and gap sizes not given here)", "NO"]
]}

Moving on to the next substance.
*Q* Consider the substance ISIS 416838: MOE gapmer, nucleobases 1018 to 1042 of SEQ ID NO: 1 (Table 6) (antisense GCAACCGGGATGATGAGTGC; MOE gapmer, wing and gap sizes not given here) . Is its neutrophils strictly less than 40%?
*A* YES

###

assay: Hematology assays in cynomolgus monkeys (Example 45); assay type: in vivo; settings: day 8; escalating dose regimen
Exercise: for every item that follows, state its recorded hematocrit.
Give bare numbers, in %.

{"columns": ["substance", "numeric_value"],
 "data": [
  ["ISIS 417002: MOE gapmer, nucleobases 1275 to 1318 of SEQ ID NO: 1 (Table 8) (antisense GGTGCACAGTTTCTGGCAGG; MOE gapmer, wing and gap sizes not given here)", 44],
  ["ISIS 416858: MOE gapmer, nucleobases 1275 to 1318 of SEQ ID NO: 1 (Table 8) (antisense ACGGCATTGGTGCACAGTTT; MOE gapmer, wing and gap sizes not given here)", 43],
  ["ISIS 416838: MOE gapmer, nucleobases 1018 to 1042 of SEQ ID NO: 1 (Table 6) (antisense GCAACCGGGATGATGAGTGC; MOE gapmer, wing and gap sizes not given here)", 43]
]}

Go through the items and report each one's hematocrit.
1. ISIS 416864: MOE gapmer, nucleobases 1275 to 1318 of SEQ ID NO: 1 (Table 8) (antisense GGCAGCGGACGGCATTGGTG; MOE gapmer, wing and gap sizes not given here)
2. ISIS 416850: MOE gapmer, nucleobases 1275 to 1318 of SEQ ID NO: 1 (Table 8) (antisense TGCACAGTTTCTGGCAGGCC; MOE gapmer, wing and gap sizes not given here)

*A*
[44, 43]

###

experiment: Hematology assays in cynomolgus monkeys (Example 45); type: in vivo; settings: day 78; escalating dose regimen
quantity: hematocrit (%)
Numbers only, in %.

Consider the worked cases shown below.
{"columns": ["substance", "quantity", "numeric_value"],
 "data": [
  ["ISIS 416838: MOE gapmer, nucleobases 1018 to 1042 of SEQ ID NO: 1 (Table 6) (antisense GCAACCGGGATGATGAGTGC; MOE gapmer, wing and gap sizes not given here)", "hematocrit", 41],
  ["ISIS 416850: MOE gapmer, nucleobases 1275 to 1318 of SEQ ID NO: 1 (Table 8) (antisense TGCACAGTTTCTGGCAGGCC; MOE gapmer, wing and gap sizes not given here)", "hematocrit", 41]
]}

Next, consider the following substance.
// hematocrit lookup, substance = ISIS 417002: MOE gapmer, nucleobases 1275 to 1318 of SEQ ID NO: 1 (Table 8) (antisense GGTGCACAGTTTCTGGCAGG; MOE gapmer, wing and gap sizes not given here) , result: 40

###

settings: mouse, in vivo, sc, 50 mg/kg
Exercise: for every item that follows, state its recorded Bilirubin.
Numbers only, in mg/dL.

Go through the items and report each one's Bilirubin.
1. ISIS 416867: MOE gapmer, nucleobases 1275 to 1318 of SEQ ID NO: 1 (Table 8) (antisense ACTGGCAGCGGACGGCATTG; MOE gapmer, wing and gap sizes not given here)
2. ISIS 416865: MOE gapmer, nucleobases 1275 to 1318 of SEQ ID NO: 1 (Table 8) (antisense TGGCAGCGGACGGCATTGGT; MOE gapmer, wing and gap sizes not given here)
3. ISIS 416859: MOE gapmer, nucleobases 1275 to 1318 of SEQ ID NO: 1 (Table 8) (antisense GACGGCATTGGTGCACAGTT; MOE gapmer, wing and gap sizes not given here)
4. ISIS 416856: MOE gapmer, nucleobases 1275 to 1318 of SEQ ID NO: 1 (Table 8) (antisense GGCATTGGTGCACAGTTTCT; MOE gapmer, wing and gap sizes not given here)
5. ISIS 416853: MOE gapmer, nucleobases 1275 to 1318 of SEQ ID NO: 1 (Table 8) (antisense TTGGTGCACAGTTTCTGGCA; MOE gapmer, wing and gap sizes not given here)

*A*
0.21
0.27
0.20
0.23
0.25

// Bilirubin lookup, substance = ISIS 416850: MOE gapmer, nucleobases 1275 to 1318 of SEQ ID NO: 1 (Table 8) (antisense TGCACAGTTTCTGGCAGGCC; MOE gapmer, wing and gap sizes not given here) , result: 0.21

###

assay: Hematology assays in cynomolgus monkeys (Example 45); type: in vivo; settings: day 71
Exercise: for every item that follows, state its recorded platelet count.
Give bare numbers, in µL⁻¹.

{"columns": ["substance", "unit_name", "numeric_value"],
 "data": [
  ["ISIS 416838: MOE gapmer, nucleobases 1018 to 1042 of SEQ ID NO: 1 (Table 6) (antisense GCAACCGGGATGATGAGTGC; MOE gapmer, wing and gap sizes not given here)", "µL⁻¹", 365000]
]}

Next, consider the following substance.
// platelet count lookup, substance = ISIS 416864: MOE gapmer, nucleobases 1275 to 1318 of SEQ ID NO: 1 (Table 8) (antisense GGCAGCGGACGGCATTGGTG; MOE gapmer, wing and gap sizes not given here) , result: 394000

###

tested on: human Factor 11 mRNA; test: Antisense inhibition of human Factor 11 in HepG2 cells by microwalk gapmers, lipofectin, 75 nM (Example 3); type: cell-based; details: HepG2, lipofectin, ~24 h, gapmers targeted to nucleobases 656 to 704 of SEQ ID NO: 1
Strand notation (5' to 3'): a small letter for the sugar, then the base; units joined by * are phosphorothioate-linked, units joined directly phosphodiester-linked; [ ] holds rarer units or linkages, { } end groups; capitals alone tell only the bases. e = 2'-O-(2-methoxyethyl) (MOE); [5mC] = 5-methylcytosine; d = 2'-deoxy (DNA)
quantity: % inhibition
Your answer should be a number followed by the unit of measure.

Consider the worked cases shown below.
{"columns": ["substance", "result"],
 "data": [
  ["416886 (antisense e[5mC]*eA*eT*dG*dT*d[5mC]*dT*dA*dG*dG*dT*d[5mC]*d[5mC]*dA*d[5mC]*dA*dT*eA*eA*eA) [compound 416886]", "74%"],
  ["416816 (antisense e[5mC]*eT*eA*eG*eG*dT*d[5mC]*d[5mC]*dA*d[5mC]*dA*dT*dA*dA*dA*eT*eG*eT*e[5mC]*eT) [compound 416816]", "79%"]
]}

Next, consider the following substance.
// % inhibition lookup, substance = 416828 (antisense eT*eT*eA*eT*eG*d[5mC]*d[5mC]*d[5mC]*dT*dT*d[5mC]*dA*dT*dG*dT*e[5mC]*eT*eA*eG*eG) [compound 416828] , result: 87%
